Sourced from patent US20080171716A1

- System: TLR7/8
- ASSAY_TEXT: Cytokine induction in human PBMCs by immunostimulatory RNA, alone or co-formulated with modified ssRNA in the same SNALP/lipid particle
- Type: cell-based
- EXPERIMENTAL_CONDITIONS: human PBMCs; co-formulated in the same SNALP, 1:1 molar ratio; 24 h
m = 2'-O-methyl; r = 2'-OH (RNA)
PARAMETER_MEASURED: immunostimulatory effects (IFN-α induction) of ApoB antisense ssRNA when co-formulated

NP1496 UmodS: influenza NP1496 sense strand ssRNA with 2′OMe uridines: GGAmUCmUmUAmUmUmUCmUmUCGGAGUU (sense GGAUCUUAUUUCUUCGGAGUU; sugars from the 5' end rrrmrmmrmmmrmmrrrrrrr, backbone not given here)
abolished
βgal-mC: 2′OMe-cytidine RNA: mCUAmCAmCAAAUmCAGmCGAUUUUU (CUACACAAAUCAGCGAUUUUU; 2'-O-methyl at C, RNA at AGU, backbone not given here)
do not inhibit
Luc UmodS: Luc sense strand ssRNA with 2′OMe at uridines: GAmUmUAmUGmUCCGGmUmUAmUGmUAUU (sense GAUUAUGUCCGGUUAUGUAUU; sugars from the 5' end rrmmrmrmrrrrmmrmrmrrr, backbone not given here)
abolished
NP-mC: 2′OMe-cytidine RNA: GGAUmCUUAUUUmCUUmCGGAGUU (GGAUCUUAUUUCUUCGGAGUU; 2'-O-methyl at C, RNA at AGU, backbone not given here)
do not inhibit
